Tested on: MDA-MB-231
Assay: Cell viability assay (PrestoBlue, 72 h), MDA-MB-231
Assay type: cell-based, human
Details: Homo sapiens, MDA-MB-231; Figure 3C, unit inferred; read-out: IC50 values MDA-MB-231
Reported Property: IC50 (µM)

* O=C(c1ccc(Oc2ccc([N+](=O)[O-])cc2)cc1)c1ccc(Oc2ccc([N+](=O)[O-])cc2)cc1 | 10.7
* Cc1cc(C)c(-c2csc(NC(=O)c3ccc(Br)cc3)n2)c(C)c1 | 1.49
* CCN(CC)S(=O)(=O)c1ccc(C(=O)Nc2nc(-c3ccc(Cl)c(Cl)c3)cs2)cc1 | 2.52
* Cc1cc(C)c(C)c(-c2csc(NC(=O)c3cc([N+](=O)[O-])cc([N+](=O)[O-])c3)n2)c1C | 8.4

Value source: paper PMC7545175
